All values here come from PubChem BioAssay (EPA / NIEHS).

Read-out: Interferon-gamma inducible Protein 10 (IP10), CXCL10 (gene 3627)
EXPERIMENT: BSK_BE3C_IP10: BioMAP Diversity Plus: BE3C Assay for Interferon-gamma inducible Protein 10 (IP10) Biomarker Activity (AID 2283034)
APPLIED_CONDITIONS: primary human bronchial epithelial cells; actives raise or lower the signal
Method: BSK_BE3C is a cell-based, multiplexed-readout assay that uses bronchial epithelial cell, a human lung primary cell, with measurements taken at 24 hours after chemical dosing in a 96-well plate.BSK_BE3C_IP10 is an assay component measured in the BSK_BE3C assay. It measures IP-10 antibody related to regulation of gene expression using ELISA technology.Data from the assay component BSK_BE3C_IP10 was analyzed into 1 assay endpoint. […]
The source made the active and inactive calls. Rule for the calls: active = hit-call score of the fitted dose curve at least 0.9, where 1 is the maximum; inactive = score below 0.9.
Respond only with the outcome that fits, drawn from YES for active, NO for inactive

These solved cases illustrate the format of a correct answer.
CCCCC(CC)COC(=O)CCCCC(=O)OCc1ccccc1 (stereo not given) | NO
CCCCCCCCCCCCN1CCCC1=O | YES

input: Assay result, entry `O=c1c(-c2ccc(O)cc2)coc2cc(O)ccc12` — outcome?
output: NO

input: Assay result, entry `CCCCOCCO` — outcome?
output: NO

====

Read-out: Fatty acid synthase (Homo sapiens) (UniProt P49327)
Sequence (P49327 whole entry, looked up): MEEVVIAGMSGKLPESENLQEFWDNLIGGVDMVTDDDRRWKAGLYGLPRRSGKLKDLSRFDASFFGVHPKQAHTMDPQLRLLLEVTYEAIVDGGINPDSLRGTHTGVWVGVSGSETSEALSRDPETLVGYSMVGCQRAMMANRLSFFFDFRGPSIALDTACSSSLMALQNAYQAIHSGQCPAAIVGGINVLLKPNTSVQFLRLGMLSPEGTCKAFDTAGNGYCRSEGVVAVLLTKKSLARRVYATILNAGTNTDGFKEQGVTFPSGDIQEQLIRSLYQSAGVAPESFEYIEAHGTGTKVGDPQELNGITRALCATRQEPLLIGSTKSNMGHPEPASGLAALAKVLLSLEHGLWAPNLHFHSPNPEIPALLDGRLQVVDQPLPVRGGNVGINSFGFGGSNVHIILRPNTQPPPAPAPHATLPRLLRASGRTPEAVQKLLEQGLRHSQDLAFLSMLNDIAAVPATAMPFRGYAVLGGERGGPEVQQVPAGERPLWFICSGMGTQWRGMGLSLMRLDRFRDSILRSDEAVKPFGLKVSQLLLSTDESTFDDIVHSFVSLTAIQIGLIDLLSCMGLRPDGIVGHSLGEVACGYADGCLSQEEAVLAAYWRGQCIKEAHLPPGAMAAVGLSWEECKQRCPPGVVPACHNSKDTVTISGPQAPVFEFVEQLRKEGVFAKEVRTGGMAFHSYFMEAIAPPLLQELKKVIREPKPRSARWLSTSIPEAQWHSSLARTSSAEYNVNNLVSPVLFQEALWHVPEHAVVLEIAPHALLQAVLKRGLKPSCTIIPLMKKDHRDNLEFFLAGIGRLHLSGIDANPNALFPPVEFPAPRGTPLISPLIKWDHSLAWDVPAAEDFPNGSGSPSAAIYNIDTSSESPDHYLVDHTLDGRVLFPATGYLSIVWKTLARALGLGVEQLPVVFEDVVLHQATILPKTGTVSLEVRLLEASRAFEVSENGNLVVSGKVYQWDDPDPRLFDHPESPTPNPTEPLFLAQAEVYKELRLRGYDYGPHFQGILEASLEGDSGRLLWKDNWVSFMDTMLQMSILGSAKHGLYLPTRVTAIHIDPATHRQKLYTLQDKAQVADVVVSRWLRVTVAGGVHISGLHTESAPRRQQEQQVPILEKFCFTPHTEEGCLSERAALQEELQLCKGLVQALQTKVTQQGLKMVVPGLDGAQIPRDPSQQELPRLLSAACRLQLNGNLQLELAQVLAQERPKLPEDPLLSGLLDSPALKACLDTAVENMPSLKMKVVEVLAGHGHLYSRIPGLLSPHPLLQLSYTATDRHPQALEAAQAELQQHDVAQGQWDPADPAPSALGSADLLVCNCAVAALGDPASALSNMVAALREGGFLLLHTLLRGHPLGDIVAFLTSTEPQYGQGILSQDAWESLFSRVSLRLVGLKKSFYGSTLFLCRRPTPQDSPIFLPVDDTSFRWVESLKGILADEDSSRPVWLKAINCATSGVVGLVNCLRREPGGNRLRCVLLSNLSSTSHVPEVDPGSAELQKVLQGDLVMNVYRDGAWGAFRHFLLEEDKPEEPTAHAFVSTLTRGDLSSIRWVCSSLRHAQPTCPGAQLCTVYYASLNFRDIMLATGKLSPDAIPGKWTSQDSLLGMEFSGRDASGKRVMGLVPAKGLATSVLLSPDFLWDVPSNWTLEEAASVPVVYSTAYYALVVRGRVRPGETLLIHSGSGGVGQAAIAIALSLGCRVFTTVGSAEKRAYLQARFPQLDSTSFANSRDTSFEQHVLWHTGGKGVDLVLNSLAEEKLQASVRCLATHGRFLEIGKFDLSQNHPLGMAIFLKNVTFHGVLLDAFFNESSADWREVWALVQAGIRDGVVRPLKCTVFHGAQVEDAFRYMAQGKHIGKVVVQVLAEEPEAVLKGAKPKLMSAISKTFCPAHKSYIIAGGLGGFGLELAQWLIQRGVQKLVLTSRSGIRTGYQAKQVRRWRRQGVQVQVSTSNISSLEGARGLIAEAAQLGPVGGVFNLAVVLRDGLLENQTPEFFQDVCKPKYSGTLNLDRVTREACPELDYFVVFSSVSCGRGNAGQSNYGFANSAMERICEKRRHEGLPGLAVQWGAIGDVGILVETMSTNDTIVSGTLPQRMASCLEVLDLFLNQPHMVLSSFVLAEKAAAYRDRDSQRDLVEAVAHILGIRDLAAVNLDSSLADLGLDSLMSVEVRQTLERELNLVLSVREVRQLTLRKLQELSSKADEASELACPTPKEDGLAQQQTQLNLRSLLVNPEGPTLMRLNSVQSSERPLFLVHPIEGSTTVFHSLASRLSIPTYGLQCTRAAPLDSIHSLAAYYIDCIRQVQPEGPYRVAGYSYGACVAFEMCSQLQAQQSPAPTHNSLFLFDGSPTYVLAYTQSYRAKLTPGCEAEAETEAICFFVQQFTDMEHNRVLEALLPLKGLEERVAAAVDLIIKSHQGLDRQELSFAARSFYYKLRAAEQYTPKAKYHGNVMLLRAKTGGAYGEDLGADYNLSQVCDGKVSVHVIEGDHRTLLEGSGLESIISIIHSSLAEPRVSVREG
EXPERIMENT: LTEA_HepaRG_FASN: Life Technologies and Expression Analysis (LTEA) Assay for Fatty Acid Synthase (FASN) using HepaRG (AID 2283448)
APPLIED_CONDITIONS: mRNA level, 48 h; actives raise or lower the signal
Calls of active or inactive are those of the source. How the source made its calls: active means hit-call score of the fitted dose curve at least 0.9, where 1 is the maximum; inactive means score below 0.9.
Respond only with the outcome that fits, drawn from active, inactive

These solved cases illustrate the format of a correct answer.
C=C(C)C(=O)OCCC(F)(F)C(F)(F)C(F)(F)C(F)(F)C(F)(F)C(F)(F)F | inactive
CC[C@H](c1ccc(O)cc1)[C@@H](CC)c1ccc(O)cc1 | active
CN1CCN(c2ccccc2/C=C2\SCCN(c3ccc(Cl)c(Cl)c3)C2=O)CC1 | inactive
CCCCC(CC)COC(=O)CCCCC(=O)OCC(CC)CCCC (centres undefined) | inactive

input: Assay result, entry `C[C@@H]1C[C@H]2[C@@H]3CCC4=CC(=O)C=C[C@]4(C)[C@@]3(F)[C@@H](O)C[C@]2(C)[C@@]1(O)C(=O)COP(=O)(O)O` — outcome?
output: inactive

input: Assay result, entry CCCCC(CC)COC(=O)CCCCC(=O)OCc1ccccc1 (centres undefined) — outcome?
output: inactive

input: Assay result, entry `ClC1=C(Cl)C(Cl)(Cl)C(Cl)=C1Cl` — outcome?
output: inactive

input: Assay result, entry OC1CCC(C2CCCCC2)CC1 (centres undefined) — outcome?
output: inactive

input: Assay result, entry `c1ccc2c(c1)Cc1ccccc1-2` — outcome?
output: inactive

====

Read-out: TIMP metallopeptidase inhibitor 1 (TIMP1), TIMP1 (gene 7076)
EXPERIMENT: BSK_hDFCGF_TIMP1: BioMAP Diversity Plus: hDFCGF Assay for TIMP metallopeptidase inhibitor 1 (TIMP1) Biomarker Activity (AID 2283062)
APPLIED_CONDITIONS: primary human foreskin fibroblasts; actives raise or lower the signal
The source made the active and inactive calls. How the source made its calls: active means hit-call score of the fitted dose curve at least 0.9, where 1 is the maximum; inactive means score below 0.9.
PARAMETER_MEASURED: AC50

Examples with answers:
FC(F)(I)C(F)(F)C(F)(F)C(F)(F)C(F)(F)C(F)(F)I | 6.72 µM (active) [middle of 5 runs]
COc1ccc([N+](=O)[O-])cc1N | inactive
CCC(=C(c1ccc(O)cc1)c1ccc(OCCN(C)C)cc1)c1ccccc1 | 12.1 µM (active)
CCCOC(=O)c1ccc(O)cc1 | inactive
NC(=O)N1C(=O)C(C(=O)c2cc(Cl)cs2)c2cc(F)c(Cl)cc21 (configuration not stated) | 5.17 µM (active)

# batch: return AC50 for each of the 2 compounds below
1. C=C(C)C(=O)OCCC(F)(F)C(F)(F)C(F)(F)C(F)(F)C(F)(F)C(F)(F)F
2. CCCCCCCC(=O)O

output:
inactive
inactive
